Values compiled from patent US20250011468A1.

Each record here notes measured FXa generation rate at 200 nM mAb.
experimentalTarget: human plasma-derived FIXa (Haematologic Technologies Inc) (human, UniProt P00740 47-191; P00740 227-461)
Sequence (P00740 47-191, chain 1 of 2): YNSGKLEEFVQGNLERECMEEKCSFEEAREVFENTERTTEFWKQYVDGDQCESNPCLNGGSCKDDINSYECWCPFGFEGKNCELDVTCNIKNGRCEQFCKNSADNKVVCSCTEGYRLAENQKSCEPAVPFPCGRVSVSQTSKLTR
Sequence (P00740 227-461, chain 2 of 2): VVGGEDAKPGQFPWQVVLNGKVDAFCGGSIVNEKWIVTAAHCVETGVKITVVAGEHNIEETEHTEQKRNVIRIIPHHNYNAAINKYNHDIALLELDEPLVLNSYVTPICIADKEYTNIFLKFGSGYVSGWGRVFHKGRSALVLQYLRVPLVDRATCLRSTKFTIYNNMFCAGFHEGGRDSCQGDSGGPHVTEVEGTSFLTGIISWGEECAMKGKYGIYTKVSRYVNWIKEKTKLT
measurementNotes: cell-based or functional assay
Give the number; pM/min is assumed, so skip it.

mAb1-4857 (antibody, V domains shown) VH: EVQLVESGGGLVQPGRSLKLSCAASGFTFDDYAMHWVRQVPGKGLEWVSGISWRGDIIGYVDSVKGRFTISRDNAKNSLYLQLNSLRAEDTALYYCVKSYGSGSFYNAFDSWGQGTLVTVSS VL: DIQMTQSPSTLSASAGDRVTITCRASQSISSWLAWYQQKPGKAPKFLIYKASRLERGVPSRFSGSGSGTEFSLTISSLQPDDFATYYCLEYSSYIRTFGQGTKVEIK : 1300
mAb1-4763 (antibody, V domains shown) VH: EVQLVESGGGLVQPGRSLRLSCAASGFTFGDYAMHWVRQAPGKGLEWVSGISWNSGSIGYAKSVKGRFTISRDNAKNSLYLQMNSLRAEDTALYYCAKGQYDEDAGMDVWGQGTTVTVSS VL: DIQMTQSPSSLSASVGDRVTITCRASQWISSYLNWYQQKPGKAPKLLIYAASSLPSGVPSRFSGSGSGTDFTLTISSLQPEDFATYYCQQGYPTWTFGGGTKVEIK : 401

Okay, now this binder:
Need FXa generation rate at 200 nM mAb, item mAb1-4624 (antibody, V domains shown) VH: EVQLVQSGAEVKKPGESLRISCKGSGYRFTSYWIGWVRQMPGKGLEWMGMIDPTDSYTDYGPSFRGHVTISADKSISTAYLQWSSLKASDTAMYYCARVRIMSGAFDIWGQGTMVTVSS VL: DIVMTQSPLSLPVTPGEPASISCRSSQSLLHSTWYNYLNWYLQKPGQSPQLLIYLGSNRASGVPDRFSGSGSGTDFTLKISRVEAEDVGVYYCMQVLHIPYTFGQGTKLEIK
960
